Recorded values, source patent US20220112288A1.

- subject of test: T1, Rhesus macaque CD4-HIS (Acro Biosystems, Cat. CD4-C52H7) (rhesus macaque, UniProt P16003 26-390)
- T1 construct: Bought reagent; also called Rhesus CD4; rhesus CD4-HIS; not shown: His tag
- protocol: BLI (Octet Red384); Ab on anti-mouse Fc (AMC) sensor; rhesus CD4-HIS 100/50/25 nM; global 1:1 fit;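 further: antibodies loaded at 10 µg/mL, an unrelated mouse-derived antibody served as internal reference, curves fit over association and dissociation phases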
value type: Response
Give only the figure.

{"binder": "75110_09N20A (antibody, V domains shown, Tested as antibody purified from AlivaMab Mouse hybridoma supernatant (human variable domains, kappa; mouse Fc, captured on anti-mouse IgG Fc sensors); also called ADS75110 purified AMM Ab) VH: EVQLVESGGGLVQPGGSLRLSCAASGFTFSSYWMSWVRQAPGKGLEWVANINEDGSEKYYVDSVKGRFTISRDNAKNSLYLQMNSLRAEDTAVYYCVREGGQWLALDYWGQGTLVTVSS VL: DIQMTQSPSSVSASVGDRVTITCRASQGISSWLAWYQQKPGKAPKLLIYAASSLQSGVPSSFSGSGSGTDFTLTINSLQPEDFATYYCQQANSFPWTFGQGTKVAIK", "Response": 0.14}
{"binder": "75110_06C16A (antibody, V domains shown, Tested as antibody purified from AlivaMab Mouse hybridoma supernatant (human variable domains, kappa; mouse Fc, captured on anti-mouse IgG Fc sensors); also called ADS75110 purified AMM Ab) VH: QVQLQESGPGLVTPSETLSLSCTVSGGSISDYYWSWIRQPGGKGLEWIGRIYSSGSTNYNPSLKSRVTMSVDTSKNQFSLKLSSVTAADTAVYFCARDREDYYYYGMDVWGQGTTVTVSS VL: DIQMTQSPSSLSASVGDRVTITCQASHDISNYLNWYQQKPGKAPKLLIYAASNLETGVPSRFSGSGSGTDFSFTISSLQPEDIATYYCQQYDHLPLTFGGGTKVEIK", "Response": 0.15}
{"binder": "75110_10N21A (antibody, V domains shown, Tested as antibody purified from AlivaMab Mouse hybridoma supernatant (human variable domains, kappa; mouse Fc, captured on anti-mouse IgG Fc sensors); also called ADS75110 purified AMM Ab) VH: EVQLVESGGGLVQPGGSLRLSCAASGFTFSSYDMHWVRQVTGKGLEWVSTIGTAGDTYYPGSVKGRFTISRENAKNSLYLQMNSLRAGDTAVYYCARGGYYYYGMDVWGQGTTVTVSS VL: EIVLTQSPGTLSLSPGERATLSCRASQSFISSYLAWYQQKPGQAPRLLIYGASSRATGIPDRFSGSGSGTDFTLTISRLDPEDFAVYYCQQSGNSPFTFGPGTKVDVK", "Response": 0.07}

# context switch: different binder, same Response
Reported Response ( 75110_11D03A (antibody, V domains shown, Tested as antibody purified from AlivaMab Mouse hybridoma supernatant (human variable domains, kappa; mouse Fc, captured on anti-mouse IgG Fc sensors); also called ADS75110 purified AMM Ab) VH: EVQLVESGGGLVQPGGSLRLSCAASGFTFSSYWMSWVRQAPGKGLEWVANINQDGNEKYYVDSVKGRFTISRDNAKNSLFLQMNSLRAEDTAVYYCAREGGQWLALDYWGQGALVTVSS VL: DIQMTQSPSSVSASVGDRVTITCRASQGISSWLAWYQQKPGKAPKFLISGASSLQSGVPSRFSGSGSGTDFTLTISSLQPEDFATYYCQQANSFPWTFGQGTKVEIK ) = 0.11
